target: Mitogen-activated protein kinase 9 (Homo sapiens, UniProt P45984); experiment: Inhibition of His6-tagged JNK2 (unknown origin) assessed as reduction in c-Jun phosphorylation using GST-c-Jun (1 to 79 residues) and [gamma32P]ATP incubated for 1 hr by scintillation counting assay
Sequence (P45984 whole entry, the tested form may be a part): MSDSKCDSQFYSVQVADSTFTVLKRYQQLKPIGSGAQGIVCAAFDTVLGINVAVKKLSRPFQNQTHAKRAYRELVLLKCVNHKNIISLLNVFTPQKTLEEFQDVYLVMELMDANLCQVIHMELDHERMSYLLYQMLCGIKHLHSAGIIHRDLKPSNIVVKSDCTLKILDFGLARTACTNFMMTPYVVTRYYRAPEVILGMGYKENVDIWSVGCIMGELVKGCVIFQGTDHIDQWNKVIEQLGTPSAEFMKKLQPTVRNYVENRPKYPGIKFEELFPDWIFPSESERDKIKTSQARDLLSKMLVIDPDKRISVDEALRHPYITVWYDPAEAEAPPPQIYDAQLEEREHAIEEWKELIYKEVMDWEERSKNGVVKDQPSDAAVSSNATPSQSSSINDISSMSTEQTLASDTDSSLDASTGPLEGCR
pIC50: −log10 of the molar value.
parameter: pIC50

Can you share its pIC50? I mean this compound: O=C(Nc1ccc(F)cc1)c1cccc(-c2n[nH]c3ccc(-c4nc[nH]n4)cc23)c1 5.00 to 6.30

Record request: pIC50 value, item COc1ccc(CC(=O)Nc2cccc(-c3n[nH]c4ccc(C(N)=O)cc34)c2)cc1 5.00 to 6.30

Please report the recorded pIC50 for O=C(O)Cc1ccc(NC(=O)c2ccc3[nH]nc(-c4ccc(F)cc4)c3c2)cc1 . 5.00 to 6.00

For the compound O=C(O)c1ccc2[nH]nc(-c3cc4ccccc4s3)c2c1 , what pIC50 is on record? 5.00 to 6.00

Name the recorded pIC50 for O=C(Nc1ccc2[nH]nc(-c3ccc(F)cc3)c2c1)c1ccccc1O . 5.00 to 6.00

What value of pIC50 has been reported for the following compound? COCCNC(=O)c1cccc(-c2n[nH]c3ccc(-c4nc[nH]n4)cc23)c1 5.00 to 6.30

Given c1cc2[nH]nc(-c3ccc4c(c3)OCO4)c2cc1-c1nnn[nH]1 , state its recorded pIC50. 5.00 to 6.30

Bench note: what pIC50 did COCC(=O)Nc1cccc(-c2n[nH]c3ccc(C(N)=O)cc23)c1 show? 5.00 to 6.00

I am curious: what pIC50 value has been reported for CCOC(=O)CCc1ccc2[nH]nc(-c3ccc(F)cc3)c2c1 ? ≥ 5.00

So what does the record say about pIC50 for O=C(O)C(=O)Nc1cccc(-c2n[nH]c3ccc(-c4nc[nH]n4)cc23)c1 ? 5.00 to 6.30

# pIC50 lookup, item COC(=O)c1ccc(C(=O)Nc2ccc3[nH]nc(-c4ccc(F)cc4)c3c2)cc1 ≥ 5.00

Name the reported pIC50 value associated with the compound CN(C)Cc1n[nH]c(-c2ccc3[nH]nc(-c4cccc(C(=O)NCCN5CCCCC5)c4)c3c2)n1 5.00 to 6.30

// pIC50 lookup, key: FC(F)(F)c1ccc2[nH]nc(-c3ccccc3)c2c1 ≥ 5.00

Consider the compound shown here: CN(C)CCCOc1cccc(-c2n[nH]c3ccc(-c4ncn[nH]4)cc23)c1 What is its recorded pIC50? 5.00 to 6.00

Data request, read-out pIC50, for O=C(Nc1ccccc1)c1cccc(-c2n[nH]c3ccc(-c4n[nH]c(CN5CCCC5)n4)cc23)c1 5.00 to 6.30

What pIC50 value was documented for this compound, COc1ccc2cc(-c3n[nH]c4ccc(-c5n[nH]c(CN(C)C)n5)cc34)ccc2c1 ? 5.00 to 6.00

What value of measured pIC50 is listed for CC(C)(C)CC(=O)Nc1cccc(-c2n[nH]c3ccc(-c4nc[nH]n4)cc23)c1 ? 5.00 to 6.30

Would you kindly share the measured pIC50 for O=C(NCc1ccc(F)cc1)c1cccc(-c2n[nH]c3ccc(-c4ncn[nH]4)cc23)c1 ? 5.00 to 6.30

# query: pIC50 of entry COC(=O)CCc1nnc(-c2ccc3[nH]nc(-c4ccc(F)cc4)c3c2)[nH]1 5.00 to 6.00

Given the entry O=C(O)c1ccc(CNC(=O)c2ccc3[nH]nc(-c4ccc(F)cc4)c3c2)cc1 , report its measured pIC50. 5.00 to 6.00

I would be grateful if you could share the reported pIC50 for CCOC(=O)c1ccc2[nH]nc(-c3ccc(F)cc3)c2c1 . 5.00 to 6.00
